# Tested on: CAKI-1 renal
# Assay notes: NCI tumour cell line growth inhibition, 48 h
Readout name: TGI (µM)
State just the number; it will be interpreted in µM.

Please report the recorded TGI for CC(=O)c1cccc(NC(=O)c2ccc(NC3=C(Cl)C(=O)N(Cc4ccccc4)C3=O)cc2)c1 .
3.05

Recorded TGI for COc1ccc(-c2nc3c(nc2-c2ccc(OC)cc2)N(C)S(=O)(=O)N=C3N)cc1 , please?
94.9

====

# System: U251 CNS
Tick one outcome: 1 for active, 0 for inactive

// outcome(item) with item = COc1ccc(/C(=N/O)c2cc(OC)c(OC)c(OC)c2)c(OC)c1N
0

How did this test come out for COc1cc(NC(C)CCCN)c2ncccc2c1Sc1ccc(Cl)cc1 (stereo unspecified) ?
0

Dear colleague, could you share the recorded outcome for CC12CCC(O)CC1=CCC1C2CCC2(C)C(c3cccnc3)=CCC12 (stereo unspecified) when you have a moment?
0

# lookup: test call for COc1ccc2nccc(/C=C/c3ccnc4ccc(OC)cc34)c2c1
0

What is the recorded call for this compound in the test? COC(=O)[C@@H](OC)[C@@H]1Cc2cc3cc(OC4CC(OC5CC(O)C(O)C(C)O5)C(O)C(C)O4)c(C)c(O)c3c(O)c2C(=O)[C@H]1OC1CC(OC2CC(OC3CC(C)(O)C(O)C(C)O3)C(O)C(C)O2)C(O)C(C)O1 (stereo partly specified)
1

What call does the record list for COc1ccc(-c2nnc(Nc3nc(O)c(C4=c5cc(F)ccc5=NC4=O)s3)o2)cc1 ?
0

Can you look up the reported call for CNCCCn1c2c(c3ccc(F)cc3c1=O)C(=O)c1cc(OC)cnc1-2 for me?
1

Would you mind telling me which call this test gave C[C@]12CC[C@@H]3c4ccc(O)cc4CC[C@H]3[C@@H]1CC[C@@H]2NS(=O)(=O)c1ccc2ccccc2c1 ?
0

How was CN(C)c1ccc(/C=N/NC(=O)c2cccc3ccccc23)c(Cl)c1 classified in this test?
0

Fill in: this test's call for CC(=O)c1cccc(NC(=O)c2ccc(NC3=C(Cl)C(=O)N(Cc4ccccc4)C3=O)cc2)c1 is ___
0

Give the logged outcome of this assay for the following compound: CC1(C)CC(=O)c2c(ccc(C(=O)C[C@@H](N)CO)c2N)O1
1

====

# Tested on: MDA-MB-231 breast
# Assay notes: NCI tumour cell line growth inhibition, 48 h
Readout name: TGI (µM)
Quick note: give the figure in µM, leave out the unit.

// lookup TGI for Cc1cc(S(N)(=O)=O)c(S/C(=N\Nc2ccc([N+](=O)[O-])cc2)c2ccc3ccccc3c2)cc1Cl
29.6

Query (compound): C[C@]12CCc3sc(-c4cccc(F)c4)nc3C1=CC[C@@H]1[C@@H]2CC[C@]2(C)C(=O)CC[C@@H]12 ; field requested: TGI
7.34

Look up TGI for this compound: COc1ccc(-c2cc(-c3ccccc3)nc3c2CC(=O)Nc2ccccc2-3)cc1OC
6.21

Give its TGI value. Item: COc1ccc(-c2nc3cc(C(F)(F)F)ccc3n2CC2CCCN3CCCCC23)cc1 (stereo not drawn)
27.7

What measured TGI goes with N=C(N)SCc1ccc([N+](=O)[O-])cc1[N+](=O)[O-] ?
36.6

# input compound: CC(=O)c1ccc2c(c1)N(CCCN(C)C)c1ccccc1S2 ; wanted: its TGI
24.8

====

# Test system: HT29 colon
# Assay notes: NCI tumour cell line growth inhibition, 48 h
Readout name: TGI

Looking for the measured TGI of CC#CCCCC1(C)CCCNC1=S (stereo unspecified) , can you help?
> 10 µM

TGI lookup needed for CCOC(=O)C1=C(C)NC(C)=C(C(=O)OCC)C1c1ccc(C)cc1 , thanks.
> 100 µM

Data request, read-out TGI, for O=C(CCc1ccc(O)cc1)NCCCNC(=O)CCc1ccc(O)cc1
> 100 µM

What measured TGI goes with Cc1cc2c(=O)[nH]c(N)nc2nc1C ?
> 100 µM

Give its TGI value. Item: O=P1(Oc2ccccc2)NCc2ncccc2O1 (stereo unspecified)
> 100 µM

Reported TGI for CC(=O)OCCOCCN1CCN(c2c(O)c3c(c(O)c2Cl)C(=O)C=CC3=O)CC1 : what is it?
2.17 µM
